target: UniProtKB P04585; experiment: Assay for inhibition of microbial expressed HIV protease; type: biochemical; conditions: wild-type HIV-1 protease expressed in E. coli, peptide substrate, pH 5.5; read-out: Enzyme Inhibition - IC50
pIC50: −log10 of the molar value.

# MOLECULE, TESTED_TARGET, pIC50
measured = [
    ("CCCN([C@H](CO)CCC[C@H](CC)NC(=O)[C@H](Cc1ccccc1Cl)NC(=O)OC)S(=O)(=O)c1ccc(N)cc1", "UniProtKB P04585", 8.84),
    ("COC(=O)N[C@H](C(=O)NCCC(C)C[C@@H](CO)N(CCC(C)C)S(=O)(=O)c1ccc(C)cc1)C(c1ccccc1)c1ccccc1 (stereo partly drawn)", "UniProtKB P04585", 9.28),
    ("COC(=O)N[C@H](C(=O)NC(C)(C)CCC[C@@H](CO)N(CCCF)S(=O)(=O)c1ccc(N)cc1)C(c1ccccc1)c1ccccc1", "UniProtKB P04585", 10.21),
    ("COC(=O)N[C@H](C(=O)N[C@@H](C)CCC[C@@H](CO)N(C)S(=O)(=O)c1ccc(N)cc1)C(c1ccccc1)c1ccccc1", "UniProtKB P04585", 9.39),
    ("CC[C@@H](CCC[C@@H](CO)N(CCC(C)C)S(=O)(=O)c1ccc(N)cc1)NC(=O)[C@@]1(NC(=O)OC(C)(C)C)C[C@@H]1c1ccccc1", "UniProtKB P04585", 10.19),
    ("COC(=O)N[C@H](C(=O)N[C@H](CCC[C@@H](CO)N(CCC(C)C)S(=O)(=O)c1ccc(C(C)=O)cc1)C1CC1)C(c1ccc(F)cc1)c1ccc(F)cc1", "UniProtKB P04585", 10.28),
]

---

test system: acute HIV infection of T-lymphoid cells; test: Assay for inhibition of HIV replication (spread assay); type: cell-based, HIV-1; conditions: Human immunodeficiency virus 1, T-lymphoid; read-out: Spread - IC95
Counter-ions that a name gives are not always drawn.
Below, each of the molecules is paired with its reported log10(IC95) value.
ASSAY_READOUT: log10(IC95) (log10 of the value in nM)

# MOLECULE, log10(IC95)
rows = [
    ("COC(=O)N[C@H](C(=O)N[C@@H](CCC[C@@H](CO)N(CCC(C)C)S(=O)(=O)c1ccc(CO)cc1)C(F)(F)F)C(c1ccccc1)c1ccccc1 [Example J7]", 2.56),
    ("COC(=O)N[C@@H](Cc1ccccc1Br)C(=O)N[C@H](CCC[C@@H](CO)N(C(C)C)S(=O)(=O)c1ccc(CO)cc1)C1CC1 [Example J37]", 1.57),
    ("CC[C@@H](CCC[C@@H](CO)N(CCC(C)C)S(=O)(=O)c1ccc(N)cc1)NC(=O)[C@@H](NC(=O)OC)C1c2ccccc2C=Cc2ccccc21 [Example F6]", 1.00),
    ("COC(=O)N[C@H](C(=O)N[C@H](CCC[C@@H](CO)N(C(C)C)S(=O)(=O)c1ccc(CO)cc1)C(F)(F)F)C(c1ccccc1)c1ccccc1 [Example J40]", 1.53),
    ("CN[C@H](C(=O)N[C@H](CCC[C@@H](CO)N(CCC(C)C)S(=O)(=O)c1ccc(CO)cc1)C1CC1)C(c1ccccc1)c1ccccc1 [Example J28]", 0.90),
    ("CC[C@@H](CCC[C@@H](CO)N(C(C)C)S(=O)(=O)c1ccc(C(C)=O)cc1)NC(=O)[C@@H](NC(=O)OC)C(c1ccccc1)c1ccccc1 [Example K3]", 2.05),
    ("CC[C@@H](CCC[C@@H](CO)N(C(C)C)S(=O)(=O)c1ccc(CO)cc1)NC(=O)[C@@H](NC)C(c1ccccc1)c1ccccc1 [Example J35, hydrochloride]", 1.40),
    ("COC(=O)N[C@H](C(=O)N[C@H](CCC[C@@H](CO)N(CCC(C)C)S(=O)(=O)c1ccc(CO)cc1)C1CC1)C(c1ccc(F)cc1)c1ccc(F)cc1 [Example J16]", 1.40),
    ("CN[C@H](C(=O)N[C@H](CCC[C@@H](CO)N(CCC(C)C)S(=O)(=O)c1ccc(CO)cc1)C(C)C)C(c1ccccc1)c1ccccc1 [Example J29]", 1.20),
    ("CC[C@@H](CCC[C@@H](CO)N(CCC(C)C)S(=O)(=O)c1ccc(N)cc1)NC(=O)[C@@]1(NC(=O)OC(C)(C)C)C[C@@H]1c1ccccc1 [Example F9]", 1.88),
    ("COC(=O)N[C@@H](Cc1ccccc1Cl)C(=O)N[C@H](CCC[C@@H](CO)N(CCC(C)C)S(=O)(=O)c1ccc(CO)cc1)C(C)C [Example J26]", 2.04),
    ("COC(=O)N[C@H](C(=O)N[C@@H](C)CCC[C@@H](CO)N(CCC(C)C)S(=O)(=O)c1ccc2ncsc2c1)C(c1ccccc1)c1ccccc1 [Example D5]", 0.95),
]
